Biological target: Nucleic Acid
Assay: Binding affinity to DNA assessed as intercalation after 24 hrs by DNA-methyl green assay
pIC50: −log10 of the molar value.
PROPERTY_MEASURED: pIC50

COMPOUND | PROPERTY_MEASURED | MEASURED
Cn1c2nc3ccccc3c-2cc2cc(Br)ccc21 | pIC50 | < 3.40
Cn1c2nc3cc(Cl)ccc3c-2cc2ccccc21 | pIC50 | < 3.00
Clc1ccc2nc3[nH]c4ccccc4c3c(Cl)c2c1 | pIC50 | < 3.00
OCCN1CCN(c2c3cc(Cl)ccc3nc3[nH]c4ccccc4c23)CC1 | pIC50 | < 3.00
CCN(CC)CCCC(C)Nc1c2ccc(Cl)cc2nc2[nH]c3ccccc3c12 (stereo not given) | pIC50 | < 3.00
